All figures here come from PubChem BioAssay.

- METHOD_DESCRIPTION: AGP1-GFP expression modulators, hit retest, confirmation, cell-based, flow cytometry, S. cerevisiae, cherry picks (AID 2273);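 also: median GFP channel fluorescence over the whole cell population gate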
- ASSAY_CONTEXT: S. cerevisiae AGP1-GFP strain, 3 h, at 10 µM
ASSAY_ENDPOINT: GFP response, % of DMSO (%)

INSERT INTO assay_data (compound, assay_endpoint, observed_result) VALUES
  ('CC1CN(c2nnnn2-c2ccccc2)CC(C)O1 (stereo not drawn)', 'GFP response, % of DMSO', 100),
  ('Cc1cccc(/C=C/c2onc(C)c2[N+](=O)[O-])n1', 'GFP response, % of DMSO', 94.3),
  ('COc1ccc(C(=O)/C=C2/C(=O)Nc3ccccc32)cc1OC', 'GFP response, % of DMSO', 97.5),
  ('CCOc1c(Br)ccc2c1sc1nc[nH]c(=O)c12', 'GFP response, % of DMSO', 99.1),
  ('CC(C)c1ccc(C(=O)N/N=C/c2cccc(Cl)c2Cl)cc1', 'GFP response, % of DMSO', 95.7),
  ('O=C(NC(=S)NNC(=O)c1ccc(Cl)cc1Cl)c1cccnc1', 'GFP response, % of DMSO', 104),
  ('COc1cccc(-c2nnc(NC(=O)c3ccc(S(=O)(=O)N(CC(C)C)CC(C)C)cc3)o2)c1', 'GFP response, % of DMSO', 101),
  ('NC(=O)C1CCN(C(=S)NCCc2ccccc2)CC1', 'GFP response, % of DMSO', 102),
  ('C=CCOc1ccc(/C=C2\N=C(C)OC2=O)cc1OC', 'GFP response, % of DMSO', 94.5),
  ('CCc1sc(C(=O)N2CCc3ccccc32)cc1C', 'GFP response, % of DMSO', 96.8),
  ('CC(OC(=O)c1cccs1)C(=O)Nc1nc(-c2ccccc2)cs1 (stereo not drawn)', 'GFP response, % of DMSO', 94.9),
  ('CCOC(=O)CNc1c(-c2ccccc2)nc2ccc(Cl)cn12', 'GFP response, % of DMSO', 98),
  ('CCOC(=O)C1=C(c2ccccc2)NC(=S)NC1c1cc([N+](=O)[O-])ccc1OC (stereo not drawn)', 'GFP response, % of DMSO', 95.2),
  ('COc1ccccc1N1CCN(C2CCCN(Cc3cc(F)cc(F)c3)C2)CC1 (stereo not drawn)', 'GFP response, % of DMSO', 102),
  ('Cc1ccc(/C=C/C(=O)NC2CCCCCCC2)o1', 'GFP response, % of DMSO', 90.8),
  ('O=S(=O)(c1ccc(NC(=S)N/N=C/c2cccc(Oc3ccccc3)c2)cc1)N1CCOCC1', 'GFP response, % of DMSO', 106),
  ('Cc1ccc2nc(/C(C#N)=C/c3ccc(O)c(O)c3)[nH]c2c1', 'GFP response, % of DMSO', 102),
  ('O=C(OCC(=O)N1CCN(C(=O)c2ccco2)CC1)c1cc(-c2ccccc2)nc2ccccc12', 'GFP response, % of DMSO', 136),
  ('Cc1cc(N)n2ncc(-c3ccccc3)c2n1', 'GFP response, % of DMSO', 89.4),
  ('Cc1cc(O)ccc1NC(=O)c1ccccc1', 'GFP response, % of DMSO', 102),
  ('O=C(Nc1nc(-c2ccc(Cl)cc2)cs1)c1cccnc1', 'GFP response, % of DMSO', 99.4),
  ('O=C(c1cc(-c2cccc(Cl)c2)on1)N1CCc2ccccc2C1', 'GFP response, % of DMSO', 104),
  ('COc1cc(N2C(=O)C=CC2=O)c(OC)cc1Cl', 'GFP response, % of DMSO', 108),
  ('Cc1ccc(CN2CCSc3sccc3C2=O)cc1', 'GFP response, % of DMSO', 97.1),
  ('CCc1ccccc1OCc1nnc(N)s1', 'GFP response, % of DMSO', 102),
  ('CC(=O)c1ccccc1NCC(=O)Nc1ccc(C)cc1', 'GFP response, % of DMSO', 100),
  ('Cc1nc2ccccc2n2c(O)c(CC(=O)O)cc12', 'GFP response, % of DMSO', 98.9),
  ('Cc1cc(=O)oc2cc(OC(C)C(=O)NC3CCCC3)ccc12 (stereo not drawn)', 'GFP response, % of DMSO', 105),
  ('CC(C)c1ccc2c(c1)C1(NN=C(c3ccccc3)S1)C(=O)N2 (stereo not drawn)', 'GFP response, % of DMSO', 95.7),
  ('COc1ccccc1C(=O)N1CCN(c2cccc(C(F)(F)F)c2)CC1', 'GFP response, % of DMSO', 98.9),
  ('COc1ccc2c(c1)c(C(C)=O)c(C)n2-c1ccccc1OC', 'GFP response, % of DMSO', 107),
  ('c1ccc(-c2cccc(-c3ccccn3)n2)nc1', 'GFP response, % of DMSO', 89),
  ('Cc1cc(=O)n(-c2ccc3ccccc3n2)[nH]1', 'GFP response, % of DMSO', 99.6),
  ('CCOC(=O)c1sc(NC(=O)c2ccco2)nc1-c1ccccc1', 'GFP response, % of DMSO', 100),
  ('Cc1cc(C)nc(/N=c2/ssnc2Cl)c1', 'GFP response, % of DMSO', 111),
  ('NC(N)=N/N=C/c1ccc(OCc2ccc(Cl)cc2Cl)cc1', 'GFP response, % of DMSO', 99.1),
  ('O=C1CC(Sc2ncccn2)C(=O)N1c1ccccc1C(F)(F)F (stereo not drawn)', 'GFP response, % of DMSO', 98.9),
  ('CCOC(=O)CSC1=NC(=O)/C(=C/c2ccc(OC)cc2)S1', 'GFP response, % of DMSO', 102),
  ('Cc1cc(NCCCN2CCOCC2)n2nc(C)c(-c3ccccc3)c2n1', 'GFP response, % of DMSO', 100),
  ('Cc1ccc(N2CC(C(=O)OCc3nnc(-c4ccccc4)o3)CC2=O)cc1 (stereo not drawn)', 'GFP response, % of DMSO', 96.2),
  ('O=C1c2ccsc2SCCN1Cc1cccc(Cl)c1', 'GFP response, % of DMSO', 98.7),
  ('Cc1cc(NCCOCCO)n2ncc(-c3ccc(Cl)cc3)c2n1', 'GFP response, % of DMSO', 105),
  ('O=[N+]([O-])c1ccc(Sc2nc3ccccc3o2)c([N+](=O)[O-])c1', 'GFP response, % of DMSO', 96),
  ('O=C1ON=C(c2ccccc2)/C1=C/c1ccco1', 'GFP response, % of DMSO', 89.2),
  ('Cc1cccc(NC(=O)CCCN2C(=O)c3cccc4cccc(c34)C2=O)c1', 'GFP response, % of DMSO', 98.8),
  ('Cc1nn(Cc2ccc([N+](=O)[O-])cc2)c(=O)n1-c1cccc(Cl)c1', 'GFP response, % of DMSO', 95.4),
  ('O=C(N/N=C/c1ccc(-c2ccc(Br)cc2)o1)c1ccc2c(c1)OCO2', 'GFP response, % of DMSO', 98.8),
  ('O=C(O)C1CCN(S(=O)(=O)c2ccc(Oc3ccccc3)cc2)CC1', 'GFP response, % of DMSO', 96.7);

---

- METHOD_DESCRIPTION: promoters of myeloid differentiation in arrested cells, primary screen, cell-based, GFP/MAC1 double positive, flow cytometry, validation set (AID 588685);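 also: compound exposure lasts four days before antibody staining and flow analysis; 0% = DMSO wells and 100% = 5 µM fulvestrant positive control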
- ASSAY_CONTEXT: ER-HoxA9 marrow cells, stronger effect = higher value, normalized: vehicle 0, fulvestrant 100
ASSAY_ENDPOINT: differentiation response (%)

INSERT INTO measurements (compound, readout_units, observed_result) VALUES
  ('C[N+]12CCCCC1C(COC(=O)c1ccc3c(c1)OCO3)CCC2 (configuration not stated)', '%', -19.6),
  ('OC(CCCN1CCCCC1)(c1ccccc1)c1ccccc1', '%', -2.46),
  ('Nc1cccc2nc3ccccc3cc12', '%', -6.96),
  ('CCN(CC)CCNC(=O)c1cc(S(C)(=O)=O)ccc1OC', '%', -5.6),
  ('Cn1cc(CN2CCCC(CO)(Cc3cccc(Cl)c3)C2)cn1 (configuration not stated)', '%', -1.88),
  ('CC(C)(C)NC[C@H](O)COc1nsnc1N1CCOCC1', '%', -0.82),
  ('Clc1ccccc1CN1CCc2sccc2C1', '%', -4.99);

---

- METHOD_DESCRIPTION: modulators of CIT2-GFP expression in yeast, confirmation, S. cerevisiae, GFP fusion, cherry picks, mother/daughter gates (AID 2274)
- ASSAY_CONTEXT: S. cerevisiae CIT2-GFP strain, flow cytometry, 3 h; measured here: mother cell gate; at 10 µM; stronger effect = higher value
Below: a set of entries, each annotated with reported GFP response, % of DMSO.
ASSAY_ENDPOINT: GFP response, % of DMSO (%)

INSERT INTO measurements (compound, observed_result) VALUES
  ('Cc1cc(C)c(C(=O)COC(=O)c2ccc([N+](=O)[O-])o2)cc1C', 97.1),
  ('C[C@@H](C(=O)Nc1nc2ccc(F)cc2s1)N1C(=O)C2CC=CCC2C1=O (stereo partly specified)', 100),
  ('Cc1cccc(NC(=O)c2nc(S(=O)(=O)Cc3ccccc3)ncc2Cl)c1', 90.4),
  ('O=C(/C(=C/O)N=Nc1ccc(Cl)cc1)c1ccncc1', 88.2),
  ('CC(=O)Nc1c(-c2ccc(F)cc2)nc2ccccn12', 108),
  ('CCCCNC(=O)c1ccc2c(SCC(=O)O)c3c(nc2c1)CCCC3', 98);
